# PROTOCOL DETAILS: qHTS assay for measurement of the activity of small molecule inhibitors on Zika virus induced Caspase-3 activity in human iPSC derived neural progenitor cells (hNPCs) (AID 1224857); note: nearly all actives have a fitted effect of over 65% in size
# SETTINGS: hNPCs ZIKV-induced caspase-3/7, Caspase-Glo luminescence, 6 h; series mostly up to 45.7 µM
Inconclusive results are not listed. Active and inactive are the calls of the source. Calls come from the whole dose curve; as a rule, active = well fitted inhibition curve with a large enough effect; inconclusive = small, poorly fitted or top-dose-only effect; inactive = no such curve, though single readings can be large or run the other way.
Write down one outcome, taken from active, inactive

Field: example entries. Status: answers known.
                                   compound  classification
0  FC(F)(F)c1ccc(Nc2nc3ccc(Oc4ccnc(-c5ncc(C(F)(F)F)[nH]5)c4)cc3[nH]2)cc1        inactive
1  OCCN1C[C@H](O)[C@@H](O)[C@H](O)[C@@H]1CO        inactive
2      O=C1c2cccc(O)c2C(=O)c2c(O)cc(CO)cc21        inactive
3  CN(N=O)C(=O)N[C@H]1C(O)OC(CO)[C@@H](O)[C@H]1O (stereo not given in full)        inactive
4  O=[N+]([O-])c1cn2c(n1)OC[C@@H](OCc1ccc(OC(F)(F)F)cc1)C2        inactive

Task: What did this assay record as the result for c1coc(CNc2ncnc3nc[nH]c23)c1 ?
Result: inactive

Task: Status in this test for CC(Oc1ccc(O)cc1)(P(=O)(O)O)P(=O)(O)O ?
Result: inactive

Task: // param item: Cc1cnn(C)c1C(=O)Nc1cc(Nc2ccc3c(C=Cc4ccccn4)n[nH]c3c2)ccc1F ; yields the recorded call
Result: inactive

Task: How was C#C[C@]1(O)CC[C@@H]2[C@@H]3CCc4cc(O)ccc4[C@H]3CC[C@@]21C classified in this test?
Result: inactive

Task: What did this assay record as the result for N[C@H]1CN(c2c(F)cc3c(=O)c(C(=O)O)cn(C4C[C@@H]4F)c3c2Cl)CC12CC2 (stereo not given in full) ?
Result: inactive

###

# PROTOCOL DETAILS: qHTS of pediatric cancer cell lines to identify multiple opportunities for drug repurposing: Primary screen for Rh18 cells (AID 1347102); note: nearly all actives have a fitted effect of over 65% in size
# SETTINGS: Rh18 rhabdomyosarcoma viability, CellTiter-Glo luminescence, 48 h; series mostly up to 46 µM
# Protocol: Drug repurposing or repositioning has been offered as a strategy for drug development in oncology programs. […] [1] Shen, M et al. Quantitative high-throughput phenotypic screening of pediatric cancer cell lines identifies multiple opportunities for drug repurposing. […] Cells were assayed in growth media at a density of 500-1,000 cells/well. […] After a 15 min incubation at room temperature, samples were analyzed for luminescence intensity using a ViewLux High-throughput CCD imager equipped with clear filters.
Records with an inconclusive call do not appear. Active and inactive are the calls of the source. The call rests on the fitted dose curve; in most records, active means well fitted cell-killing curve with a large enough effect; inconclusive means small, poorly fitted or top-dose-only effect; inactive means flat fitted curve, though single readings scatter.
// one of active, inactive, no free text

Illustrative cases are given below, each with its answer.
COMPOUND	CLASSIFICATION
CNC(=O)c1cccc(-c2ccc3c(N4CCOC[C@H]4C)nc(N4CCOC[C@H]4C)nc3n2)c1	active
CC1(C)CC(O)CC(C)(C)N1[O]	inactive
CC1(C)[C@H](O[C@H]2O[C@H](C(=O)O)[C@@H](O)[C@H](O)[C@H]2O[C@@H]2O[C@H](C(=O)O)[C@@H](O)[C@H](O)[C@H]2O)CC[C@@]2(C)[C@H]1CC[C@]1(C)[C@H]2C(=O)C=C2[C@H]3C[C@@](C)(C(=O)O)CC[C@]3(C)CC[C@]21C	inactive
Cn1cc(C=CC(=O)c2cccc(F)c2)cc1C=CC(=O)NO	inactive
CC(Oc1ccc(O)cc1)(P(=O)(O)O)P(=O)(O)O	inactive
CCCCCCCCCCCC(CC1OC(=O)C1CCCCCC)OC(=O)C(CC(C)C)NC=O (stereo not given)	inactive
COc1cc(C=CC(=O)CC(=O)C=Cc2ccc(O)c(OC)c2)ccc1O	active
COc1cc(C)c(C=CC(C)=CC=CC(C)=CC(=O)O)c(C)c1C	inactive

Task: Entry COc1cccc2c1C(=O)c1c(O)c3c(c(O)c1C2=O)C[C@@](O)(C(=O)CO)C[C@H]3O[C@H]1C[C@H](N)[C@H](O)[C@H](C)O1 : call = ?
Result: active

Task: Please state the recorded outcome for this compound: CC(C)C[C@H](NC(=O)[C@@H](NC(=O)c1cccc(-c2ccccc2)n1)[C@@H](C)O)B(O)O
Result: active

###

# PROTOCOL DETAILS: qHTS of pediatric cancer cell lines to identify multiple opportunities for drug repurposing: Confirmatory screen for Saos-2 cells (AID 1347127); note: nearly all actives have a fitted effect of over 60% in size
# SETTINGS: Saos-2 osteosarcoma cell viability; series mostly up to 45.9 µM
Results filed as inconclusive are left out. The source made the active and inactive calls. Calls follow the shape of the dose curve; as a rule, active = well fitted cell-killing curve with a large enough effect; inconclusive = small, poorly fitted or top-dose-only effect, or effect the other way; inactive = no such curve, though single readings can be large or run the other way.
Result category, one only: YES = active, NO = inactive

Examples from the recorded data:
COMPOUND	CLASSIFICATION
C=CC(=O)Nc1ccc2ncnc(Nc3ccc(OCc4cccc(F)c4)c(Cl)c3)c2c1	YES
COc1ccc2c(c1OC)C(=O)OC2[C@H]1c2c(cc3c(c2OC)OCO3)CCN1C (stereo not given in full)	NO
CCc1cc(C(C)=NOCc2ccc(C3CCCCC3)c(C(F)(F)F)c2)ccc1CN1CC(C(=O)O)C1	YES

Task: What is the recorded call for this compound in the test? CCc1cnn2c(NCc3ccc[n+]([O-])c3)cc(N3CCCC[C@@H]3CCO)nc12
Result: NO

Task: What did this assay record as the result for CC1(C)O[C@@H]2C[C@H]3[C@@H]4CCC5=CC(=O)C=C[C@]5(C)[C@@H]4[C@@H](O)C[C@]3(C)[C@]2(C(=O)CO)O1 ?
Result: NO

Task: Returns: the outcome recorded for COc1cc([C@@H]2c3cc4c(cc3[C@H](O)[C@H]3COC(=O)[C@@H]23)OCO4)cc(OC)c1OC in this assay.
Result: YES

Task: Name the outcome recorded for Cc1nc(NC(=O)N2CCC[C@@H]2C(N)=O)sc1-c1ccnc(C(C)(C)C(F)(F)F)c1 in the assay.
Result: YES

Task: Check the results log: what was the call for N#Cc1c(NC(=O)c2cccc3ccccc23)sc2c1CCCC2 ?
Result: YES

Task: Record request — test call for CC(C(C)N1CC(=O)NC(=O)C1)N1CC(=O)NC(=O)C1 (stereo not given)
Result: NO

###

# Test system: PA-1
# PROTOCOL DETAILS: Primary qHTS to identify gynecologic anti-cancer compounds using libraries of approved drugs and bioactive compounds (AID 1345084); note: nearly all actives have a fitted effect of over 55% in size
# SETTINGS: Gynecologic cancer cell panel viability, ATPlite luminescence, 48 h; series mostly up to 57.5 µM
Records with an inconclusive call do not appear. Active and inactive are the calls of the source. Calls follow the shape of the dose curve; as a rule, active = well fitted cell-killing curve with a large enough effect; inconclusive = small, poorly fitted or top-dose-only effect, or effect the other way; inactive = flat fitted curve, though single readings scatter.
Log the outcome using a class from Yes for active, No for inactive

Reference set (5 entries):
>>> print(df.to_string())
                                   compound  classification
0  CC(C)n1cnc2c(NCCc3ccc(O)cc3)nc(-c3csc4ccccc34)nc21              No
1  COc1cc(CCc2cc(NC(=O)c3ccc(N4C[C@@H](C)N[C@@H](C)C4)cc3)n[nH]2)cc(OC)c1             Yes
2  OCCNC1CCCc2c1[nH]c1ccc(-c3ccccc3)cc21 (stereo not given)             Yes
3  c1cc(N[C@@H]2CCNC2)nc(-c2cnc3ccc(-c4cn[nH]c4)cn23)c1             Yes
4  FC(F)c1nc2ccccc2n1-c1nc(N2CCOCC2)nc(N2CCOCC2)n1             Yes

# ---- query compound ----
Task: Could you please tell me the result logged for COc1ccc(S(=O)(=O)Nc2cccnc2Nc2ccc(O)cc2)cc1 in this assay?
Result: Yes

###

# PROTOCOL DETAILS: Quantitative High-Throughput drug screen in 47 multiple myeloma cell lines against the NCATS MIPE library collection: OCIMY5_PLB cell viability assay (AID 1918988); note: nearly all actives have a fitted effect of over 65% in size
# SETTINGS: OCI-MY5 myeloma viability, ATP luminescence, 48 h; series mostly up to 45.8 µM
Records with an inconclusive call do not appear. Active and inactive are the calls of the source. Calls follow the shape of the dose curve; as a rule, active = well fitted cell-killing curve with a large enough effect; inconclusive = small, poorly fitted or top-dose-only effect, or effect the other way; inactive = no such curve, though single readings can be large or run the other way.
# output must be one of Y = active, N = inactive

COMPOUND	CLASSIFICATION
O=C(C=Cc1ccc(CN(CCO)CCc2c[nH]c3ccccc23)cc1)NO	Y
C#C[C@]1(O)CC[C@@H]2[C@@H]3CCC4=CC(=O)CC[C@@H]4[C@H]3CC[C@@]21CC	Y
Cc1coc2c1C(=O)C(=O)c1c-2ccc2c(C)cccc12	Y
Oc1cc2c(cc1O)C1c3ccc(O)c(O)c3OCC1(O)C2 (stereo not given)	N
CC(C)C[C@H](NC(=O)[C@@H](NC(=O)c1cccc(-c2ccccc2)n1)[C@@H](C)O)B(O)O	Y

Task: What is the recorded call for this compound in the test? CCNC(=O)c1cc2c(-c3cc(OCCN4CCCC4)c(Cl)cc3Cl)nc(N)nc2s1
Result: Y

Task: What is the recorded call for this compound in the test? Cc1ncc(-c2ccnc(Nc3ccc(S(C)(=O)=O)cc3)n2)n1C(C)C
Result: Y

Task: In this assay, the call recorded for COc1cc(OC)cc(-c2ccc3ncc4ccc(=O)n(-c5ccc(N6CCNCC6)c(C(F)(F)F)c5)c4c3c2)c1 was what?
Result: Y

All values here come from PubChem BioAssay (NCATS).
